Below: a set of entries, each annotated with reported Kp.
Test: Ratio of drug level in brain to plasma in Sprague-Dawley rat at 10 mg/kg, po
Assay type: ADME, organism-based
Set-up: dose 10 mg/kg, route oral
Conditions: read-out: BPR
experimental.endpoint: Kp

>>> reading("O=C(O)c1cc(CN2CCN(c3ccc(C(F)(F)F)cc3)CC2)c2ccccn2c1=O")
2.7
>>> reading("N#Cc1ccc(N2CCN(Cc3cc(C(=O)O)c(=O)n4ccccc34)CC2)cc1")
0.17
>>> reading("O=C(O)c1cc(CN2CCN(c3ccc(Br)cc3)CC2)c2ccccn2c1=O")
1.3
>>> reading("O=C(O)c1cc(CN2CCN(c3ccncc3)CC2)c2ccccn2c1=O")
0.03

====

Assay: Protein binding in human plasma
Format: ADME, cell-free
Conditions: read-out: PPB (converted)
Labelling field: enter fulfilled if recorded fraction unbound is less than 0.07. Enter not fulfilled if it equals or exceeds that cut-off.

>>> assigned_label("N#Cc1ccc(N2CCN(Cc3cc(C(=O)O)c(=O)n4ccccc34)CC2)cc1")
"not fulfilled"
>>> assigned_label("O=C(O)c1cc(CN2CCN(c3ccccc3)C(=O)C2)c2ccccn2c1=O")
"not fulfilled"
>>> assigned_label("O=C(O)c1cc(CN2CCN(c3ccc(C(F)(F)F)cc3)CC2)c2ccccn2c1=O")
"fulfilled"
>>> assigned_label("O=C(O)c1cc(Cc2ccc(-c3cccnc3)cc2)c2ccccn2c1=O")
"fulfilled"
>>> assigned_label("O=C(O)c1cc(CN2CCN(c3ccc(Br)cc3)CC2)c2ccccn2c1=O")
"fulfilled"
>>> assigned_label("O=C(O)c1cc(CN2CCN(c3ccccc3)CC2)c2ccccn2c1=O")
"not fulfilled"

====

Target: Muscarinic acetylcholine receptor M1 (Homo sapiens) (UniProt P11229)
Sequence (P11229 whole entry): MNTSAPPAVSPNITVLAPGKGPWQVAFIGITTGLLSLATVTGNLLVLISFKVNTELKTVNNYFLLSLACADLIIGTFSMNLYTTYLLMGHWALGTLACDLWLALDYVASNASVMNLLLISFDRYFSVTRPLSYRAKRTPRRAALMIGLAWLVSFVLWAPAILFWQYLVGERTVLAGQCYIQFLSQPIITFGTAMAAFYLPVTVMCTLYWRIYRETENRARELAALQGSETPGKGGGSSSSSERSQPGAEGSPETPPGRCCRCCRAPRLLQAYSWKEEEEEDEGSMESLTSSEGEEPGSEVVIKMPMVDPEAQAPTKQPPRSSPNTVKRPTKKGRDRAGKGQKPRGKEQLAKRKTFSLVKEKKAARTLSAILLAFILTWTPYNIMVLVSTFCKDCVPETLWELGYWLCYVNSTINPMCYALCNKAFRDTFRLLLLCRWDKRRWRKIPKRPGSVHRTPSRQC
Assay: Positive allosteric modulation of human muscarinic M1 receptor expressed in CHO-NFAT cells assessed as potentiation of acetylcholine-induced calcium flux after 1 hr by FLIPR assay relative to control
Format: functional, cell-based
Set-up: concentration or dose not given beside the values
experimental.endpoint: Activity

>>> reading("O=C(O)c1cc(Cc2ccc(-c3ccccc3)cc2)c2ccccn2c1=O")
"86%"
>>> reading("N#Cc1ccc(N2CCN(Cc3cc(C(=O)O)c(=O)n4ccccc34)CC2)cc1")
"94%"
>>> reading("O=C(O)c1cc(Cc2ccc(-c3cccnc3)cc2)c2ccccn2c1=O")
"74%"

====

Target: Muscarinic acetylcholine receptor M1 (Homo sapiens) (UniProt P11229)
Test: Positive allosteric modulation of human muscarinic M1 receptor expressed in CHO-NFAT cells assessed as potentiation of acetylcholine-induced calcium flux after 1 hr by FLIPR assay
Type: functional, cell-based
experimental.endpoint: Activity

>>> reading("O=C(O)c1cc(CN2CCN(c3ccncc3)CC2)c2ccccn2c1=O")
"1.5 µM"
>>> reading("O=C(O)c1cc(CN2CCC(c3ccccc3)C2)c2ccccn2c1=O (stereo not given)")
"> 100 µM"
>>> reading("O=C(O)c1cc(CN2CCCCC2)c2ccccn2c1=O")
"7.6 µM"
>>> reading("O=C(O)c1cc(Cc2ccc(-c3ccccn3)cc2)c2ccccn2c1=O")
"0.061 µM"
>>> reading("O=C(O)c1cc(C(=O)c2ccccc2)c2ccccn2c1=O")
"> 100 µM"
